Measured furin cleavage Z-score of individual entries
# tested on: furin, P09958;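 also: purified furin at 1:10 enzyme:substrate in 50 mM HEPES pH 7.5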
# Sequence (P09958 whole entry): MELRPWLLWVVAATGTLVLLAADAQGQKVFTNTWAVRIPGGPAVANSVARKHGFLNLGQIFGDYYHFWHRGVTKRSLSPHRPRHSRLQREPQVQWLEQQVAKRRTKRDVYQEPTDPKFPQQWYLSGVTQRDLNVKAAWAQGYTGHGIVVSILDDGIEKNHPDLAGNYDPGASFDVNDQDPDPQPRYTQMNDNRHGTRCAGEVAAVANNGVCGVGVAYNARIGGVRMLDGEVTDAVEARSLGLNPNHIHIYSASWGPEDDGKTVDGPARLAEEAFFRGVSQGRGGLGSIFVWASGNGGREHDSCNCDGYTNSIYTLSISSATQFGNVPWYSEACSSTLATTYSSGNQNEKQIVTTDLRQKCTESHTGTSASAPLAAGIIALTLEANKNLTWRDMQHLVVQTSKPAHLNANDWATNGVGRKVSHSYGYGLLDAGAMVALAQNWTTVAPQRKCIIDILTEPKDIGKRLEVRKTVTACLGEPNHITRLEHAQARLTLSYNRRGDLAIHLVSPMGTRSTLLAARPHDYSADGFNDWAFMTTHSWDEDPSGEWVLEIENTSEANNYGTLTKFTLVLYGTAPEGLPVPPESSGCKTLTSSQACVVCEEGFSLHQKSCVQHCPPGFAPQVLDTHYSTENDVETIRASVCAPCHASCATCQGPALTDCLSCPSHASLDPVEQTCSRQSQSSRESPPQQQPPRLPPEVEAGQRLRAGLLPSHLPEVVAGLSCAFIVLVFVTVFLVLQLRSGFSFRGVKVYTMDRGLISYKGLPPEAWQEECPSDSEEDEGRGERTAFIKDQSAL
# measurement description: furin cleavage Z-score vs untreated control; higher = more cleavage, active = 3.5 or more, inactive = 1 or less, 8 variable residues between constant flanks
# test parameters: 7.5 min
The list shows a part of the results. How many sequences the whole screen found active is unknown.
Keep it simple and answer with nothing but the number.

Previously resolved entries follow.
1. CAKEECSQHLAGNASASA [HC1674]: 0.0836
2. CAAGCAWYELAGNASASA [HC922]: -0.796
3. CARSRRPADTAGNASASA [FS-3210]: -0.916

Next sequence, please.
Exercise: Which furin cleavage Z-score is reported for this sequence? CASSSRDPRAAGNASASA [FS-1573]
Key: -1.14
